target: Gamma-secretase; assay: Modulation of gamma-secretase in HEK293 cells expressing guinea pig Swedish mutant SFV-APP695sw assessed as inhibition of amyloid beta-42 production after 16 to 18 hrs by HTRF assay; assay type: cell-based, Homo sapiens
EXPERIMENTAL READOUT: log10 IC50 (log10 of the value in µM)

- COMPOUND: "Cc1cc(-c2ccc(NS(=O)(=O)c3cc(Cl)cc(Cl)c3)cc2)ccn1"
  TESTED SYSTEM: "Gamma-secretase"
  VAL: -0.14
- COMPOUND: "Cc1cc(-c2ccc(NC(=O)C(C)c3cccc(N4CCN(c5ccccc5)CC4)c3)cc2)ccn1 (stereo not given)"
  TESTED SYSTEM: "Gamma-secretase"
  VAL: -0.80
- COMPOUND: "Cc1cccc(CC(=O)Nc2ccc(-c3ccnc(C)c3)cc2)c1"
  TESTED SYSTEM: "Gamma-secretase"
  VAL: 0.44
- COMPOUND: "Cc1cc(-c2ccc(NC(=O)[C@H](C)c3cc(C(F)(F)F)cc(C(F)(F)F)c3)cc2)ccn1"
  TESTED SYSTEM: "Gamma-secretase"
  VAL: -0.59
- COMPOUND: "Cc1cc(-c2ccc(NC(=O)C(C)c3cccc(-c4cnc(N5CCOCC5)nc4)c3)cc2)ccn1 (stereo not given)"
  TESTED SYSTEM: "Gamma-secretase"
  VAL: -0.19

###

assay: Metabolic stability in rat liver microsomes at 1 uM after 30 mins; format: ADME; conditions: read-out: Stability
Quick reference for microsomal CLint at 1 µM among some compounds
EXPERIMENTAL READOUT: microsomal CLint at 1 µM (µL/min/mg)

- CPD SMILES: "O=S(=O)(Nc1ccc(-c2ncccn2)cc1)c1cc(Cl)cc(Cl)c1"
  SIGN QUALIFIER: ">"
  VAL: 399
- CPD SMILES: "Cc1cc(-c2ccc(NC(=O)[C@@H](C)c3cc(C(F)(F)F)cc(C(F)(F)F)c3)cc2)ccn1"
  SIGN QUALIFIER: "<"
  VAL: 14
- CPD SMILES: "Cc1nccn1-c1ccc(NS(=O)(=O)c2cc(Cl)cc(Cl)c2)cc1"
  SIGN QUALIFIER: "="
  VAL: 113
- CPD SMILES: "O=S(=O)(Nc1ccc(-c2cc[nH]n2)cc1)c1cc(Cl)cc(Cl)c1"
  SIGN QUALIFIER: ">"
  VAL: 399
- CPD SMILES: "Cc1cc(-c2ccc(NC(=O)Cc3cc(C(F)(F)F)cc(C(F)(F)F)c3)cc2)ccn1"
  SIGN QUALIFIER: "="
  VAL: 22
- CPD SMILES: "COc1cc(C(=O)NCCC(c2ccccc2)c2ccccc2)ccc1-n1cnc(C)c1"
  SIGN QUALIFIER: ">"
  VAL: 399
- CPD SMILES: "O=S(=O)(Nc1ccc(-c2ccncc2)cc1)c1cc(Cl)cc(Cl)c1"
  SIGN QUALIFIER: "="
  VAL: 85
- CPD SMILES: "Cc1cc(-c2ccc(NC(=O)c3cc(Cl)cc(Cl)c3)cc2)ccn1"
  SIGN QUALIFIER: "="
  VAL: 19
- CPD SMILES: "C=Cc1cc(-c2ccc(NS(=O)(=O)c3cc(C(F)(F)F)cc(C(F)(F)F)c3)cc2)ccn1"
  SIGN QUALIFIER: "="
  VAL: 169
- CPD SMILES: "O=S(=O)(Nc1ccc(-c2nnco2)cc1)c1cc(Cl)cc(Cl)c1"
  SIGN QUALIFIER: "="
  VAL: 287
- CPD SMILES: "O=S(=O)(Nc1ccc(-c2ccco2)cc1)c1cc(Cl)cc(Cl)c1"
  SIGN QUALIFIER: ">"
  VAL: 399
- CPD SMILES: "Cc1cc(-c2ccc(NS(=O)(=O)c3cc(Cl)cc(Cl)c3)cc2)ccn1"
  SIGN QUALIFIER: ">"
  VAL: 399
- CPD SMILES: "Cc1noc(-c2ccc(NS(=O)(=O)c3cc(Cl)cc(Cl)c3)cc2)n1"
  SIGN QUALIFIER: ">"
  VAL: 399
- CPD SMILES: "CCc1cc(-c2ccc(NS(=O)(=O)c3cc(C(F)(F)F)cc(C(F)(F)F)c3)cc2)ccn1"
  SIGN QUALIFIER: "="
  VAL: 324
- CPD SMILES: "Cc1cc(-c2ccc(NS(=O)(=O)c3cc(C(F)(F)F)cc(C(F)(F)F)c3)cc2)ccn1"
  SIGN QUALIFIER: "="
  VAL: 290
- CPD SMILES: "O=S(=O)(Nc1ccc(-c2cncnc2)cc1)c1cc(Cl)cc(Cl)c1"
  SIGN QUALIFIER: ">"
  VAL: 399
- CPD SMILES: "COc1cc(-c2ccnc(C)c2)ccc1NS(=O)(=O)c1cc(C(F)(F)F)cc(C(F)(F)F)c1"
  SIGN QUALIFIER: ">"
  VAL: 399
- CPD SMILES: "O=S(=O)(Nc1ccc(-n2ccnc2)cc1)c1cc(Cl)cc(Cl)c1"
  SIGN QUALIFIER: "<"
  VAL: 14
- CPD SMILES: "O=S(=O)(Nc1ccc(-c2cnco2)cc1)c1cc(Cl)cc(Cl)c1"
  SIGN QUALIFIER: "="
  VAL: 166
- CPD SMILES: "Cc1cc(-c2ccc(NC(=O)c3cc(C(F)(F)F)cc(C(F)(F)F)c3)cc2)ccn1"
  SIGN QUALIFIER: "="
  VAL: 14
- CPD SMILES: "Cc1cc(-c2ccc(NC(=O)[C@H](C)c3cc(C(F)(F)F)cc(C(F)(F)F)c3)cc2)ccn1"
  SIGN QUALIFIER: "<"
  VAL: 14
- CPD SMILES: "CCCc1cc(-c2ccc(NS(=O)(=O)c3cc(C(F)(F)F)cc(C(F)(F)F)c3)cc2)ccn1"
  SIGN QUALIFIER: "="
  VAL: 122

###

test: Oral bioavailability in cynomolgus monkey at 5 mg/kg; type: ADME, organism-based, Macaca fascicularis; conditions: in vivo

- CPD SMILES: "Cc1cc(-c2ccc(NC(=O)[C@H](C)c3cc(C(F)(F)F)cc(C(F)(F)F)c3)cc2)ccn1"
  bioavailability (%): 56

###

molecular target: Gamma-secretase; assay: Modulation of gamma-secretase in HEK293 cells expressing guinea pig Swedish mutant SFV-APP695sw assessed as inhibition of amyloid beta-42 production after 16 to 18 hrs by HTRF assay; type: cell-based, Homo sapiens
pIC50: −log10 of the molar value.
Assign TRUE to entries whose pIC50 meets or exceeds 6; assign FALSE to the rest.

- COMPOUND: "Cc1cc(-c2ccc(NC(=O)C(C)c3cc(C#N)cc(C(F)(F)F)c3)cc2)ccn1 (stereo not given)"
  TESTED SYSTEM: "Gamma-secretase"
  ASSIGNED CATEGORY: "FALSE"
- COMPOUND: "Cc1cc(-c2ccc(NC(=O)C(C)c3cccc(-c4ccc(NC(C)C)nc4)c3)cc2)ccn1 (stereo not given)"
  TESTED SYSTEM: "Gamma-secretase"
  ASSIGNED CATEGORY: "TRUE"
- COMPOUND: "COc1cc(NC(=O)[C@H](C)c2cc(C(F)(F)F)cc(C(F)(F)F)c2)ccc1-c1ccnc(C)c1"
  TESTED SYSTEM: "Gamma-secretase"
  ASSIGNED CATEGORY: "TRUE"
- COMPOUND: "Cc1cc(-c2ccc(NC(=O)C(C)c3cccc(-c4ccc(C(=O)N(C)C)cc4)c3)cc2)ccn1 (stereo not given)"
  TESTED SYSTEM: "Gamma-secretase"
  ASSIGNED CATEGORY: "TRUE"
- COMPOUND: "CCCc1cc(-c2ccc(NS(=O)(=O)c3cc(C(F)(F)F)cc(C(F)(F)F)c3)cc2)ccn1"
  TESTED SYSTEM: "Gamma-secretase"
  ASSIGNED CATEGORY: "FALSE"
- COMPOUND: "Cc1cc(-c2ccc(NC(=O)C(C)c3cccc(N4CCN(C)CC4)c3)cc2)ccn1 (stereo not given)"
  TESTED SYSTEM: "Gamma-secretase"
  ASSIGNED CATEGORY: "FALSE"
- COMPOUND: "Cc1nccn1-c1ccc(NS(=O)(=O)c2cc(Cl)cc(Cl)c2)cc1"
  TESTED SYSTEM: "Gamma-secretase"
  ASSIGNED CATEGORY: "FALSE"
- COMPOUND: "O=S(=O)(Nc1ccc(-n2ccnc2)cc1)c1cc(Cl)cc(Cl)c1"
  TESTED SYSTEM: "Gamma-secretase"
  ASSIGNED CATEGORY: "FALSE"

###

target: Gamma-secretase; assay: Modulation of gamma-secretase in HEK293 cells expressing guinea pig Swedish mutant SFV-APP695sw coexpressing DLL4 assessed as inhibition of notch processing in human TE671 cells after 3 days by dual-cell luciferase reporter gene assay; assay type: cell-based

- CPD SMILES: "Cc1cc(-c2ccc(NC(=O)[C@H](C)c3cc(C(F)(F)F)cc(C(F)(F)F)c3)cc2)ccn1"
  TESTED SYSTEM: "Gamma-secretase"
  ENDPOINT UNIT: "µM"
  IC50: 11.8

Data provenance is ChEMBL document CHEMBL3085750.
